system: KM12 colon; assay: NCI tumour cell line growth inhibition, 48 h; in the data active = GI50 below about 0.43 µM; inactive = the rest
Choose one outcome from this list and give only that: active, inactive

// query For CCOC(=O)/C=C/C1=C(c2ccsc2)c2ccc(OC)cc2CC1 , which call appears in the assay record?
// result active

// query For C=C1CC2(OC1=O)C(=O)N(C)c1ccc(I)cc12 (stereo not given) , which call appears in the assay record?
// result inactive

// query For CCOC(=O)c1ccc2c(c1)[n+](=O)c(C(=O)C1CCCS1)c(C(F)(F)F)n2[O-] (stereo not given) , which call appears in the assay record?
// result active

// query For O=C1NC(=O)/C(=C/c2c(Cl)nc3sccn23)S1 , which call appears in the assay record?
// result inactive

// query For COc1ccc(-c2nnc(COc3ccc(Cl)cc3Cl)o2)cc1OC , which call appears in the assay record?
// result inactive

// query For Cc1ccc(/C(=N/NS(=O)(=O)c2ccc([N+](=O)[O-])cc2)Sc2cc(Cl)c(C)cc2S(N)(=O)=O)cc1 , which call appears in the assay record?
// result inactive

// query For CN(C)c1ccc(Nc2ncnc3ccccc23)cc1 , which call appears in the assay record?
// result inactive

// query For O=C(Nc1cccc(-n2ccc3c(NC(=O)c4ccccc4)nccc32)c1)Nc1ccc(Cl)c(C(F)(F)F)c1 , which call appears in the assay record?
// result active

// query For O=c1c2c([nH]c3ccccc13)CCCC2 , which call appears in the assay record?
// result inactive

// query For N#Cc1c(-c2ccc(Cl)cc2)csc1NC(=O)Nc1ccc(Cl)c(C(F)(F)F)c1 , which call appears in the assay record?
// result active
